System: C3H10T1/2 cells
Assay: Enzymatic assay of alkaline phosphatase in 96-well plates (differentiation of C3H10T1/2 cells)
Type: cell-based
Settings: Mus musculus, C3H 10T1/2, 144 h; 6 days of stimulation; relative to compound 1 in the same experiment; mean of 2 to 5 independent experiments; read-out: Maximum stimulation, % of maximum activation of compound 1
Each entry gets 0 (no) if its Emax stays under 90%, and 1 (yes) if its Emax is 90% or above.

CCCCCCn1c(=O)c(C(=O)Nc2ccc(C(=O)OC(C)(C)C)cc2)c(O)c2ccccc21: 0 (no)
CCOC(=O)c1ccc(NC(=O)c2c(O)c3ccccc3n(Cc3ccccc3)c2=O)cc1: 0 (no)
CCCCCCn1c(=O)c(C(=O)Nc2ccc(C(=O)OCCC)cc2)c(O)c2ccccc21: 1 (yes)
CCCCCCn1c(=O)c(C(=O)Nc2ccc(C(=O)NCCCC)cc2)c(O)c2ccccc21: 1 (yes)
CCCCCCn1c(=O)c(C(=O)Nc2ccc(C(=O)OC(C)C)cc2)c(O)c2ccccc21: 0 (no)
CCCCCCn1c(=O)c(C(=O)Nc2ccc(C(=O)OCc3ccccc3)cc2)c(O)c2ccccc21: 0 (no)
CCCCCCn1c(=O)c(C(=O)Nc2ccc(C(=O)OCC)cc2)c(O)c2ccccc21: 0 (no)

Could you now look at the following compound, please?
Evaluate "CCCCCCn1c(=O)c(C(=O)Nc2ccc(C(=O)O)cc2)c(O)c2ccccc21" : Emax at minimum 90%?
1 (yes)

Data provenance: patent US9061997B2
